- experimental_target: solubilized cytochrome c oxidase (COX) (Rattus norvegicus, UniProt P00406+P05503+P05505)
- Construct: Cytochrome c oxidase was purified from rat liver mitochondria of female Wistar rats; from tissue; host or cells: rat liver mitochondria (female Wistar rats)
- Sequence (P00406 whole entry, other chains not shown): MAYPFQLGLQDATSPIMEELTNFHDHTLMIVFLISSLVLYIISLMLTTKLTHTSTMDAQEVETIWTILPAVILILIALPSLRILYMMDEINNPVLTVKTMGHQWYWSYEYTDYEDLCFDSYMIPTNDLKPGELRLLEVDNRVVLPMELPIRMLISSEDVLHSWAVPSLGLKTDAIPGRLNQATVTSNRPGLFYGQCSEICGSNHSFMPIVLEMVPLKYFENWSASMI
- Sequence (P05505 whole entry, other chains not shown): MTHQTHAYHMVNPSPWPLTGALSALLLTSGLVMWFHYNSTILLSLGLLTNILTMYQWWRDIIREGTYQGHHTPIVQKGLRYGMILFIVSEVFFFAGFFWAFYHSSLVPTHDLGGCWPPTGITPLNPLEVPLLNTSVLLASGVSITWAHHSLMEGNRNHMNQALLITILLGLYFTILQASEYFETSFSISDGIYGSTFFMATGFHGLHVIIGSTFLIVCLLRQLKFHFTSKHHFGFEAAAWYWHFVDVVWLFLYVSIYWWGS
- procedure_summary: Activity of solubilized cytochrome c oxidase by oxygen consumption (Clarke electrode)
- Format: biochemical
- particulars: read-out: IC50 (A2E concentration for 50% inhibition of COX); solubilized COX 1 μg/mL
readout_label: IC50 (nM)
Your answer should be a plain number; it is taken to be in nM.

Inquiry: Supply measured IC50 of CC1=C(/C=C/C(C)=C/C=C/C(C)=C/c2cc(/C=C/C=C(C)/C=C/C3=C(C)CCCC3(C)C)cc[n+]2CCO)C(C)(C)CCC1 in your reply.
Reply text: 3000

====

- experimental_target: solubilized cytochrome c oxidase (COX) (Rattus norvegicus, UniProt P00406+P05503+P05505)
- Construct: Cytochrome c oxidase was purified from rat liver mitochondria of female Wistar rats; from tissue; host or cells: rat liver mitochondria (female Wistar rats)
- procedure_summary: Activity of solubilized cytochrome c oxidase by oxygen consumption (Clarke electrode)
- Assay type: biochemical
- particulars: solubilized COX 2 μg/mL; read-out: IC50 (μM) in relation to COX
readout_label: IC50 (µM)
Your answer should be a plain number; it is taken to be in µM.

Inquiry: Supply measured IC50 of Cc1cc(N)c2ccccc2[n+]1CCCCCCCCCC[n+]1c(C)cc(N)c2ccccc21 [Dequalinium] in your reply.
Reply text: 40

Inquiry: Supply measured IC50 of CC1=C(/C=C/C(C)=C/C=C/C(C)=C/C=O)C(C)(C)CCC1 [Retinal] in your reply.
Reply text: 200

Inquiry: Supply measured IC50 of CC1=C(/C=C/C(C)=C/C=C/C(C)=C/c2cc(/C=C/C=C(C)/C=C/C3=C(C)CCCC3(C)C)cc[n+]2CCO)C(C)(C)CCC1 [A2E, N-retinyl-N-retinylidene ethanolamine] in your reply.
Reply text: 7
